- Tested on: mouse B16 melanoma cells
- test_details: Melanin formation by mouse B16 melanoma cells cultured with test samples (melanin content, absorbance 450 nm)
- Format: cell-based
- assay_conditions: test sample 5 μM in liquid culture medium, 5 days; negative control = 100
Quick reference: Melanin formation percentage of the listed items.
Your answer is read as %, so omit the unit and give the number.

Reference set (2 entries):
OC[C@H]1O[C@H](Oc2ccc3c(c2)OC[C@H](c2ccc(O)cc2)C3)[C@H](O)[C@@H](O)[C@@H]1O : 75
Oc1ccc([C@H]2COc3cc(O)ccc3C2)cc1 : 60

I looked up Nc1nc2c(ncn2[C@@H]2O[C@H](COP(=O)(O)OP(=O)(O)OP(=O)(O)O)[C@@H](O)[C@H]2O)c(=O)[nH]1 [Guanosine 5′-triphosphate, guanosine 5′-triuphosphate] and its Melanin formation percentage for mouse B16 melanoma cells was 95

I looked up Oc1ccc([C@@H]2COc3cc(O)ccc3C2)cc1 and its Melanin formation percentage for mouse B16 melanoma cells was 77

I looked up OC[C@H]1O[C@H](Oc2ccc([C@H]3COc4cc(O)ccc4C3)cc2)[C@H](O)[C@@H](O)[C@@H]1O and its Melanin formation percentage for mouse B16 melanoma cells was 74

====

- System: mouse B16 melanoma cells
- test_details: Melanin formation by mouse B16 melanoma cells cultured with test samples (melanin content, absorbance 450 nm)
- Format: cell-based
- assay_conditions: Mus musculus, B16, 120 h, test sample 5 μM in liquid culture medium, 5 days; negative control = 100; read-out: Melanin formation percentage
Quick reference: activity at 5 µM of the listed items.
Your answer is read as %, so omit the unit and give the number.

Reference set (5 entries):
Nc1ncnc2c1ncn2[C@@H]1O[C@H](CO)[C@@H](O)[C@H]1O [Adenosine, adenosine] : 94
Nc1nc2c(ncn2[C@@H]2O[C@H](COP(=O)(O)O)[C@@H](O)[C@H]2O)c(=O)[nH]1 [Guanosine 5′-monophosphate, guanosine 5′-monophosphate] : 100
Nc1ncnc2c1ncn2[C@@H]1O[C@H](COP(=O)(O)OP(=O)(O)OP(=O)(O)O)[C@@H](O)[C@H]1O [Adenosine 5′-triphosphate, adenosine 5′-triphosphate] : 93
O=c1[nH]cnc2nc[nH]c12 [Hypoxanthine, reference compound] : 97
OC[C@H]1O[C@@H](n2cnc3c(O)ncnc32)[C@H](O)[C@@H]1O [Inosine, reference compound] : 98

Record Oc1ccc([C@H]2COc3cc(O)ccc3C2)cc1 [Equol, equol] . Reported activity at 5 µM: 67

Record Nc1ncnc2nc[nH]c12 [Adenine] . Reported activity at 5 µM: 83

Record O=c1[nH]c(=O)c2[nH]cnc2[nH]1 [Xanthine, reference compound] . Reported activity at 5 µM: 100
